Entries and their solubility
Assay overview: Assessment of solubility: HT solubility in pION buffer, UV spectrophotometry
Condition label: pION system solution buffer, pH 7.4, pH 7.4, aqueous buffer, kinetic from dmso stock, Solubility (pH 7.4), pH 7.4 buffer, 16-19 h incubation, 1.0% DMSO
Assay readout: solubility

{"columns": ["Molecule", "Measured"],
 "data": [
  ["Cc1cc(C(=O)N2CCCCC2)ccc1COc1ccc(F)cc1-c1csc([C@H]2CC[C@@H](C(=O)O)CC2)n1", "29 µg/mL"],
  ["Cc1ccc(OCc2ccc(C(=O)N3CCCCC3)cc2C)c(-c2csc(N[C@H]3CC[C@@H](C(=O)O)C3)n2)c1", "> 53 µg/mL"],
  ["Cc1cc(C(=O)N2CCCCC2)ccc1COc1c(C)cccc1-c1csc(N2C[C@H]3CC[C@@H](C2)[C@H]3C(=O)O)n1", "> 55 µg/mL"],
  ["Cc1cc(C(=O)N2CCCCC2)ccc1COc1ccc(Cl)cc1-c1csc(N2CCC(C(=O)O)C(C)C2)n1 (stereo not shown)", "35 µg/mL"],
  ["Cc1cc(C(=O)N2CCCCC2)ccc1COc1ccccc1-c1csc(N2CCC(C(=O)O)CC2)n1", "> 51 µg/mL"],
  ["Cc1cc(C(=O)N2CCCCC2)ccc1COc1ccc(Cl)cc1-c1csc(C2=CCC(C(=O)O)CC2)n1 (stereo not shown)", "4.1 µg/mL"],
  ["Cc1cc(C(=O)N2CCCCC2)ccc1COc1ccccc1-c1csc(N2CCC(C(=O)O)C(C(F)(F)F)C2)n1 (stereo not shown)", "> 58 µg/mL"]
]}
